All values here come from BindingDB's records for doi:10.1021/acs.jmedchem.1c01452.

# Test Name: Inhibition of ABCB1 (unknown origin) expressed in HEK293T cells assessed as reduction in paclitaxel IC50 at 1 uM pre-incubated for 4 hrs followed by paclitaxel addition and measured after 72 hrs by MTT assay
Parameter Measured: IC50
# number then unit; no other words

q: GET /values?readout=IC50&item= COc1cc2ncnc(-c3c(-c4ccccc4)n(Cc4ccccc4Br)c4ccccc34)c2cc1OCCCN1CCOCC1
a: 12.2 µM

====

# Test Name: Inhibition of ABCB1 (unknown origin) expressed in HEK293T cells assessed as reduction in paclitaxel IC50 at 2 uM pre-incubated for 4 hrs followed by paclitaxel addition and measured after 72 hrs by MTT assay
Parameter Measured: IC50 (µM)
Could you give me the number in µM? Just the number is fine.

q: Look at this compound and give its reported IC50. COc1cc2ncnc(-c3c(-c4ccccc4)n(Cc4ccccc4Br)c4ccccc34)c2cc1OCCCN1CCOCC1
a: 3.6
